Record form. Attribute: protein stability index. Fill in for each entry.
B1: ZER1 (parent)
chain: KEMARKVIEHCSNFKEENMDTSR

# Variants of: B1
# Assay Text: protein stability index of a GFP-peptide fusion (GPS, HEK-293T) (PSI 1-6); higher = more stable;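 further: lentivirally expressed fusions sorted by FACS into six bins by GFP to DsRed ratio, PSI derived from sequencing read proportions per bin multiplied by bin number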
# Condition Description: c terminus: native
Give only the figure.

Query block: Endpoint output: protein stability index of K1H . Value?
Result block: 4.3

Query block: Now give it for E17G too.
Result block: 3.4

Query block: Same for V7R
Result block: 4.65

Query block: Likewise for K15C ?
Result block: 3.93

Query block: Try H10D next.
Result block: 4.06

Query block: Cool, now K6C
Result block: 2.92

Query block: And then D20N , what is it?
Result block: 4.59

Query block: Entry E16I please
Result block: 2.45

Query block: Now consider E17F and answer again.
Result block: 2.79

Query block: Field entry: K6R
Result block: 2.63

Query block: Next entry: C11Y
Result block: 2.11

Query block: And what about the variant M19W ?
Result block: 3.64

Query block: What about this variant? D20H
Result block: 2.96

Query block: Same lookup for K15D , please.
Result block: 4.24

Query block: Next: D20Q
Result block: 2.23

Query block: Lookup N13T
Result block: 3.68

Query block: Okay, and M3E ?
Result block: 4.53

Query block: Can you handle K6Y next?
Result block: 1.7

Query block: Request: R23D
Result block: 5.41

Query block: What would you report for M3C ?
Result block: 4.08

Query block: Also K1Y ?
Result block: 3.31

Query block: Next record, please: N13P
Result block: 3.32

Query block: Now try N13A .
Result block: 3.28

Query block: Try this variant too: R23S
Result block: 4.84

Query block: Now consider I8D .
Result block: 5.19

Query block: Another variant to check: E17V
Result block: 2.74

Query block: Okay, and A4Q ?
Result block: 4.21

Query block: Now this one: R5W
Result block: 1.94

Query block: T21L , same question.
Result block: 3.26

Query block: Also R5F , if possible.
Result block: 2.48

Query block: Consider next the variant C11R in the same way.
Result block: 4.48

Query block: Same read-out for S12Y ?
Result block: 2.73

Query block: Same read-out for E17K ?
Result block: 2.84

Query block: Another: E9R
Result block: 4.01

Query block: One more variant: H10Y
Result block: 1.9

Query block: Repeat for the following variant: M3W
Result block: 2.28

Query block: Cool, now N18K
Result block: 2.99

Query block: Further, for F14Y ?
Result block: 3.56

Query block: Continue with I8M
Result block: 3.51

Query block: Thanks! And E9G ?
Result block: 4.29

Query block: Now give it for K1Q too.
Result block: 4.3

Query block: And what about the variant N18Q ?
Result block: 3.6

Query block: Also V7M ?
Result block: 2.44

Query block: Entry E16D please
Result block: 3.07

Query block: Note, next up: K1I
Result block: 2.95

Query block: What about A4C ?
Result block: 3.02

Query block: Thanks! And E2S ?
Result block: 2.74

Query block: Now give it for C11H too.
Result block: 3.87

Query block: Try the variant F14S
Result block: 4.68

Query block: And for M3G ?
Result block: 4.37

Query block: Next variant: A4V
Result block: 2.59

Query block: How about this variant: M3H
Result block: 4.05

Query block: Another variant to look at: E16V
Result block: 3.43

Query block: Next variant: V7Q
Result block: 4.87

Query block: Then this variant: K6T
Result block: 2.74

Query block: Do the same for V7Y please
Result block: 2.09

Query block: Consider next the variant E16G in the same way.
Result block: 3.83

Query block: A4T , same question.
Result block: 3.94

Query block: Record: A4H
Result block: 4.02

Query block: What do you get for N13L ?
Result block: 1.92

Query block: Entry to check: S22K
Result block: 2.86

Query block: What do we get for V7H ?
Result block: 1.52

Query block: Lookup A4F
Result block: 1.9

Query block: Likewise for R5I ?
Result block: 2.83

Query block: Again, but for R23T
Result block: 5.01

Query block: What do you get for E17I ?
Result block: 3.15

Query block: Input A4G
Result block: 4.45

Query block: Try the variant K6Q
Result block: 3.73

Query block: Please answer likewise for E9M
Result block: 2.96

Query block: Cool, now S22G
Result block: 3.48

Query block: Now give it for R23A too.
Result block: 4.67

Query block: Now the variant K15P
Result block: 4.08

Query block: Request: C11W
Result block: 2.19

Query block: Then this variant: S22D
Result block: 4.07

Query block: Input M19I
Result block: 4.32

Query block: Do the same for R23V please
Result block: 4.76

Query block: What do you get for V7E ?
Result block: 5.27

Query block: Repeat with E16H
Result block: 2.79

Query block: Then R5Q ?
Result block: 3.26

Query block: How about M3Y ?
Result block: 3.29

Query block: Again, but for H10K
Result block: 4.78

Query block: What do you get for N13S ?
Result block: 3.33

Query block: For S12C then?
Result block: 2.98
